System: A549
Assay: Cytotoxicity against human A549 cells after 72 hrs by SRB method
Assay type: functional, cell-based
Details: A549, 72 h
measured parameter: IC50 (nM)
Respond with the bare value in nM.

Exercise: Return reported IC50. Input compound: COc1cc([C@@H]2c3cc4c(cc3[C@@H](N[C@@H](C)C(=O)OCCCn3cc(F)c(=O)[nH]c3=O)[C@H]3COC(=O)[C@H]23)OCO4)cc(OC)c1O
Solution: 2590

Exercise: Return reported IC50. Input compound: COc1cc([C@@H]2c3cc4c(cc3[C@@H](N[C@@H](CC(C)C)C(=O)OCCCCCn3cc(F)c(=O)[nH]c3=O)[C@H]3COC(=O)[C@H]23)OCO4)cc(OC)c1O
Solution: 530

Exercise: Return reported IC50. Input compound: CC[C@H](C)[C@H](N[C@@H]1c2cc3c(cc2[C@@H](c2cc(OC)c(O)c(OC)c2)[C@H]2C(=O)OC[C@@H]21)OCO3)C(=O)OCCCn1cc(F)c(=O)[nH]c1=O
Solution: 180

====

What IC50 was measured for each of the following?
Tested on: HL-60
Assay: Cytotoxicity against human HL60 cells after 48 hrs by MTT assay
Assay type: functional, cell-based
Details: HL-60, 48 h
Respond with the bare value in nM.

Exercise: Return reported IC50. Input compound: COc1cc([C@@H]2c3cc4c(cc3[C@@H](N[C@H](C(=O)OCCCn3cc(F)c(=O)[nH]c3=O)C(C)C)[C@H]3COC(=O)[C@H]23)OCO4)cc(OC)c1O
Solution: 5800

Exercise: Return reported IC50. Input compound: COc1cc([C@@H]2c3cc4c(cc3[C@@H](N[C@@H](CC(C)C)C(=O)OCCCn3cc(F)c(=O)[nH]c3=O)[C@H]3COC(=O)[C@H]23)OCO4)cc(OC)c1O
Solution: 130

Exercise: Return reported IC50. Input compound: COc1cc([C@@H]2c3cc4c(cc3[C@@H](N[C@@H](CC(C)C)C(=O)OCCCCn3cc(F)c(=O)[nH]c3=O)[C@H]3COC(=O)[C@H]23)OCO4)cc(OC)c1O
Solution: 730

Exercise: Return reported IC50. Input compound: COc1cc([C@@H]2c3cc4c(cc3[C@@H](N[C@@H](CCSC)C(=O)OCCCn3cc(F)c(=O)[nH]c3=O)[C@H]3COC(=O)[C@H]23)OCO4)cc(OC)c1O
Solution: 990
